Target: HTR1D (Homo sapiens, UniProt P28221)
Sequence (P28221 whole entry): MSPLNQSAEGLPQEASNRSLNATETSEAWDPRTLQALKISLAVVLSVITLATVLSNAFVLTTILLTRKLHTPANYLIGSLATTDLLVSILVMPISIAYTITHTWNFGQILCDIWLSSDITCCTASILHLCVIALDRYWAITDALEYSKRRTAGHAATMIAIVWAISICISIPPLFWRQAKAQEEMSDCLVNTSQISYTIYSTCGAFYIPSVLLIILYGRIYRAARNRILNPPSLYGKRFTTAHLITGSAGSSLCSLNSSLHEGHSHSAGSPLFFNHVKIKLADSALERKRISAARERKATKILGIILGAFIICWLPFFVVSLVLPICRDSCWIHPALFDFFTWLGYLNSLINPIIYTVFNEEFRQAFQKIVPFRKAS
Experiment: cell-based
Set-up: species or system HEK293; TRUPATH BRET2 G-protein dissociation; antagonist mode against agonist EC80
Settings: N-Desmethyl Xanomeline, Assay=GoA; agonist mode
Endpoint: pEC50
By convention, pEC50 is the negative base-10 log of a molar concentration.

// query For HTR1D (Homo sapiens, UniProt P28221), give pEC50 of the listed compound: CCCCCCOc1nsnc1C1=CCCNC1 [N-desmethylxanomeline]
// result 7.20

###

Target: HTR1A (Homo sapiens)
Sequence (P08908 1-422): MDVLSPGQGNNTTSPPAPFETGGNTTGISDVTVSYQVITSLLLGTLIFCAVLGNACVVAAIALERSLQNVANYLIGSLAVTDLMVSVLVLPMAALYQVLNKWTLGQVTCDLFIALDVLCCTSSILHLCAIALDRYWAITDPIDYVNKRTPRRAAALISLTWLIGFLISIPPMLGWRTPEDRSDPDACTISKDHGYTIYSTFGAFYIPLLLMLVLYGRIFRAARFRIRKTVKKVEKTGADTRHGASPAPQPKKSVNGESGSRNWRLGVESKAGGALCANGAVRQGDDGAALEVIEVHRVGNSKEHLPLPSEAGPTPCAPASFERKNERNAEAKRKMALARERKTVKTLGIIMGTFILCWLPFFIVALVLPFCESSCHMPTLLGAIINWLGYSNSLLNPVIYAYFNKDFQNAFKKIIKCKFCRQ
Test: cell-based
Parameters: species or system HEK293; TRUPATH BRET2 G-protein dissociation; antagonist mode against agonist EC80
Settings: Xanomeline, Assay=GoB; agonist mode
Endpoint: EC50 (µM)
Write down the numeric answer in µM and omit the unit.

// query Output EC50 of CCCCCCOc1nsnc1C1=CCCN(C)C1
// result 3.69

###

Target: α1A (Homo sapiens)
Sequence (P35348 1-466): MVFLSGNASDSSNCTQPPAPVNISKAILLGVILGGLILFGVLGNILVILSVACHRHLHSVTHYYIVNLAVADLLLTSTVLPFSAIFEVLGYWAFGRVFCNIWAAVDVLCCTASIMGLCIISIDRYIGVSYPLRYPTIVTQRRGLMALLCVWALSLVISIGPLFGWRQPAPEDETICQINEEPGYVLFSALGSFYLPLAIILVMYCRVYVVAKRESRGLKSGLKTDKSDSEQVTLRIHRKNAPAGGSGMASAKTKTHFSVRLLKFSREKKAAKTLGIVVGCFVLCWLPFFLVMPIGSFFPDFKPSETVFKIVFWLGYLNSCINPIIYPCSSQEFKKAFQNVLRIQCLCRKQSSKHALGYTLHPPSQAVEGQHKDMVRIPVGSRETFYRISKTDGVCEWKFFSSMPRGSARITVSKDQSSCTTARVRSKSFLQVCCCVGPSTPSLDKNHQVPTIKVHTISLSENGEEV
Assay: biochemical
Set-up: gene ADRA1A; species or system HEK293; PDSP competitive radioligand binding, membranes of transfected HEK293 cells, filtration, Ki by Cheng-Prusoff
Endpoint: Ki

// query Could you please provide reported Ki for CCCCCCOc1nsnc1C1=CCCN(C)C1 ? Thanks!
// result > 10 µM

###

Biological target: 5-HT6 (Homo sapiens, UniProt P50406)
Sequence (P50406 whole entry): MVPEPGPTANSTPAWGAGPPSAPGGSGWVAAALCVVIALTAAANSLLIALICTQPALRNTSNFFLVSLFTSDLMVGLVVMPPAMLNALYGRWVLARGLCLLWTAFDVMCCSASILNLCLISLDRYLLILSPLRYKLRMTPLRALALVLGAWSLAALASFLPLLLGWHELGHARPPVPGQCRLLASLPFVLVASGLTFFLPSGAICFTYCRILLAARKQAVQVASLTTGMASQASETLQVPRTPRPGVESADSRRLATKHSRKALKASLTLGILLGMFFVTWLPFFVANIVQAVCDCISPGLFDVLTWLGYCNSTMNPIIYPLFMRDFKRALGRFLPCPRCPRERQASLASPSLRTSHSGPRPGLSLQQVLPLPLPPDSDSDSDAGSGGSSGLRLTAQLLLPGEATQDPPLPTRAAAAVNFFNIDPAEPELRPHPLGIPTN
Endpoint: pKi
The read-out pKi is expressed as -log10 of concentration in moles per litre.

// query Output pKi of CCCCCCOc1nsnc1C1=CCCN(C)C1 [Xanomeline]
// result 5.40
